// values below are reported MIC
Tested on: Staphylococcus epidermidis
Assay: Antimicrobial activity against Staphylococcus epidermidis C960 by CLSI method
Format: functional

structure.smiles | units | MIC
Cc1cc(O)c2c(c1)[C@@H]1OC(=O)CN1C1=C2C(=O)c2cccc(O[C@H]3C[C@@H](O)[C@@H](O)[C@H](C)O3)c2C1=O | µg/mL | 32
Cc1cc(O)c2c(c1)[C@@H]1OC(=O)[C@H](CC(C)C)N1C1=C2C(=O)c2cccc(O[C@H]3C[C@@H](O)[C@@H](O)[C@H](C)O3)c2C1=O | µg/mL | 0.5
Cc1cc(O)c2c(c1)[C@@H]1OC(=O)[C@@H](CO)N1C1=C2C(=O)c2cccc(O[C@H]3C[C@@H](O)[C@@H](O)[C@H](C)O3)c2C1=O | µg/mL | 2
CC[C@H](C)[C@H]1C(=O)O[C@H]2c3cc(C)cc(O)c3C3=C(C(=O)c4c(O[C@H]5C[C@@H](O)[C@@H](O)[C@H](C)O5)cccc4C3=O)N12 | µg/mL | 0.5
Cc1cc(O)c2c(c1)[C@@H]1OC(=O)[C@H](CO)N1C1=C2C(=O)c2cccc(O[C@H]3C[C@@H](O)[C@@H](O)[C@H](C)O3)c2C1=O | µg/mL | 0.5
Cc1cc(O)c2c(c1)[C@@H]1OC(=O)[C@H](Cc3ccccc3)N1C1=C2C(=O)c2cccc(O[C@H]3C[C@@H](O)[C@@H](O)[C@H](C)O3)c2C1=O | µg/mL | 0.5
Cc1cc(O)c2c(c1)[C@@H]1OC(=O)[C@H]([C@H](C)O)N1C1=C2C(=O)c2cccc(O[C@H]3C[C@@H](O)[C@@H](O)[C@H](C)O3)c2C1=O | µg/mL | 1
Cc1cc(O)c2c(c1)[C@@H]1NC(=O)C[C@@H](C(=O)O)N1C1=C2C(=O)c2cccc(O[C@H]3C[C@@H](O)[C@@H](O)[C@H](C)O3)c2C1=O | µg/mL | 16
CSCC[C@@H]1C(=O)O[C@H]2c3cc(C)cc(O)c3C3=C(C(=O)c4c(O[C@H]5C[C@@H](O)[C@@H](O)[C@H](C)O5)cccc4C3=O)N12 | µg/mL | 2
Cc1cc(O)c2c(c1)[C@@H]1OC(=O)[C@@H]([C@H](C)O)N1C1=C2C(=O)c2cccc(O[C@H]3C[C@@H](O)[C@@H](O)[C@H](C)O3)c2C1=O | µg/mL | 4

* * *

Test system: Pseudomonas aeruginosa
Test: Antimicrobial activity against Pseudomonas aeruginosa H187 by broth microdilution method
Assay type: functional

structure.smiles | MIC
CC[C@H]1OC(=O)[C@H](C)[C@@H](O[C@H]2C[C@@](C)(OC)[C@@H](O)[C@H](C)O2)[C@H](C)[C@@H](O[C@@H]2O[C@H](C)C[C@H](N(C)C)[C@H]2O)[C@](C)(O)C[C@@H](C)C(=O)[C@H](C)[C@@H](O)[C@]1(C)O | > 2 µg/mL
CSCC[C@@H]1C(=O)O[C@H]2c3cc(C)cc(O)c3C3=C(C(=O)c4c(O[C@H]5C[C@@H](O)[C@@H](O)[C@H](C)O5)cccc4C3=O)N12 | > 128 µg/mL

* * *

Test system: Pseudomonas aeruginosa
Assay: Antimicrobial activity against Pseudomonas aeruginosa H188 by broth microdilution method
Format: functional

compound | MIC
CSCC[C@@H]1C(=O)O[C@H]2c3cc(C)cc(O)c3C3=C(C(=O)c4c(O[C@H]5C[C@@H](O)[C@@H](O)[C@H](C)O5)cccc4C3=O)N12 [JADOMYCIN DM] | > 128 µg/mL
Cc1cc(O)c2c(c1)[C@@H]1NC(=O)C[C@@H](C(=O)O)N1C1=C2C(=O)c2cccc(O[C@H]3C[C@@H](O)[C@@H](O)[C@H](C)O3)c2C1=O [JADOMYCIN N] | > 128 µg/mL
Cc1cc(O)c2c(c1)[C@@H]1OC(=O)CN1C1=C2C(=O)c2cccc(O[C@H]3C[C@@H](O)[C@@H](O)[C@H](C)O3)c2C1=O [JADOMYCIN G] | > 128 µg/mL

Numbers sourced from ChEMBL document CHEMBL1629640.
